biological target: Platelet glycoprotein 4 (Rattus norvegicus); assay: Displacement of [125]-Tyr-Bpa-Ala-Hexarelin from CD36 in Sprague-Dawley rat heart membranes incubated for 60 mins
Sequence (Q07969 whole entry): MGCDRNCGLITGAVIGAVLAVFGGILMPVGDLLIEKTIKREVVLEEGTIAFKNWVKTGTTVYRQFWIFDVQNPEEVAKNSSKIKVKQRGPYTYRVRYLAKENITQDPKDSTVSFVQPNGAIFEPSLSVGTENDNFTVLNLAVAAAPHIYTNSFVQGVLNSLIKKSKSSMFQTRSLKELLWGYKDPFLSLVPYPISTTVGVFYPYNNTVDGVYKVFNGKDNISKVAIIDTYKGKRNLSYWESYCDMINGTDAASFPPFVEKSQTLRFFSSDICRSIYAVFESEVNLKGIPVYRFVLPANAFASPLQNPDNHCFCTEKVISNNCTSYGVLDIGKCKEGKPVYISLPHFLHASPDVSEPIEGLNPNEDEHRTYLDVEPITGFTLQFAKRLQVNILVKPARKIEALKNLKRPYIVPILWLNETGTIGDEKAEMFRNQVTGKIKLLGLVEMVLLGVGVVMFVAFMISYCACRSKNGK
List of IC50 values.
Please state the figure in nM; there is no need to write the unit.

Here are 2 molecules together with their reported answers.
compound-structure	measurement-target	IC50 (nM)
C[C@@H]1NC(=O)[C@@H](Cc2c[nH]c3ccccc23)NC(=O)N(NC(=O)CN)CC#CCN(CC2CC2)CCCC[C@@H](C(N)=O)NC(=O)[C@@H](Cc2ccccc2)NC(=O)[C@H](Cc2c[nH]c3ccccc23)NC1=O	Platelet glycoprotein 4 (Rattus norvegicus)	980
CCCN1CC#CCN(NC(=O)CN)C(=O)N[C@H](Cc2c[nH]c3ccccc23)C(=O)N[C@@H](C)C(=O)N[C@@H](Cc2c[nH]c3ccccc23)C(=O)N[C@H](Cc2ccccc2)C(=O)N[C@H](C(N)=O)CCCC1	Platelet glycoprotein 4 (Rattus norvegicus)	1490

Measured IC50, C=CCN1CC#CCN(NC(=O)CN)C(=O)N[C@H](Cc2c[nH]c3ccccc23)C(=O)N[C@@H](C)C(=O)N[C@@H](Cc2c[nH]c3ccccc23)C(=O)N[C@H](Cc2ccccc2)C(=O)N[C@H](C(N)=O)CCCC1 : 12900

###

system: RAW264.7; test: Inhibition of R-FSL-1-induced TNFalpha production in mouse RAW264.7 cells at 10 uM pre-incubated for 30 mins before R-FSL-1 stimulation for 4 hrs by ELISA; assay type: functional, cell-based
Calls of active or inactive are those of the source. The calls are words filed in the database; no cut-off is given here. Numbered stars: 1 amine (or outer) side, 2 acyl side, 3 side chain; on linkers, the order of the positions; unused ones are H or OH. Square brackets hold non-standard residues; d marks the D form. Peptide text beside a SMILES is read from it. azaTyr = O=C(N(Cc1ccc(O)cc1)N[*:1])[*:2]
Return exactly one item of True (active), False (inactive)

compound	answer-label
C=CCN1CC#CCN(NC(C)=O)C(=O)N[C@H](Cc2c[nH]c3ccccc23)C(=O)N[C@@H](C)C(=O)N[C@@H](Cc2c[nH]c3ccccc23)C(=O)N[C@H](Cc2ccccc2)C(=O)N[C@H](C(N)=O)CCCC1	True
C=CCN1CC#CCN(NC(=O)[C@H](C)NC(C)=O)C(=O)N[C@H](Cc2c[nH]c3ccccc23)C(=O)N[C@@H](C)C(=O)N[C@@H](Cc2c[nH]c3ccccc23)C(=O)N[C@H](Cc2ccccc2)C(=O)N[C@H](C(N)=O)CCCC1	True
C[C@H](NC(=O)[C@@H](Cc1c[nH]c2ccccc12)NC(=O)[C@@H](N)Cc1cnc[nH]1)C(=O)NN(Cc1ccc(O)cc1)C(=O)N[C@H](Cc1ccccc1)C(=O)N[C@@H](CCCCN)C(N)=O (H-H[dW]A[azaTyr][dF]K-NH2)	True

Query: For C=CCN1CC#CCN(NC(=O)[C@@H](Cc2c[nH]c3ccccc23)NC(=O)[C@@H](N)Cc2cnc[nH]2)C(=O)N[C@@H](Cc2c[nH]c3ccccc23)C(=O)N[C@H](Cc2ccccc2)C(=O)N[C@H](C(N)=O)CCCC1 , which call appears in the assay record?
Reply: True

Query: For C=CCN1CC#CCN(NC(=O)[C@H](C)N)C(=O)N[C@@H](C)C(=O)N[C@@H](Cc2c[nH]c3ccccc23)C(=O)N[C@H](Cc2ccccc2)C(=O)N[C@H](C(N)=O)CCCC1 , which call appears in the assay record?
Reply: True

Query: For C=CCN1CC#CCN(NC(=O)[C@H](C)N)C(=O)N[C@H](Cc2c[nH]c3ccccc23)C(=O)N[C@@H](C)C(=O)N[C@@H](Cc2c[nH]c3ccccc23)C(=O)N[C@H](Cc2ccccc2)C(=O)N[C@H](C(N)=O)CCCC1 , which call appears in the assay record?
Reply: True

Query: For CN1CC#CCN(NC(=O)[C@@H](Cc2c[nH]c3ccccc23)NC(=O)[C@@H](N)Cc2cnc[nH]2)C(=O)N[C@@H](Cc2c[nH]c3ccccc23)C(=O)N[C@H](Cc2ccccc2)C(=O)N[C@H](C(N)=O)CCCC1 , which call appears in the assay record?
Reply: False

Query: For C=CCN1CC#CCN(N)C(=O)N[C@H](Cc2c[nH]c3ccccc23)C(=O)N[C@@H](C)C(=O)N[C@@H](Cc2c[nH]c3ccccc23)C(=O)N[C@H](Cc2ccccc2)C(=O)N[C@H](C(N)=O)CCCC1 , which call appears in the assay record?
Reply: False

// provenance: ChEMBL document CHEMBL4417638
